Target: human Prostanoid EP2 Receptor (EP2) (Homo sapiens, UniProt P43116)
Sequence (P43116 whole entry): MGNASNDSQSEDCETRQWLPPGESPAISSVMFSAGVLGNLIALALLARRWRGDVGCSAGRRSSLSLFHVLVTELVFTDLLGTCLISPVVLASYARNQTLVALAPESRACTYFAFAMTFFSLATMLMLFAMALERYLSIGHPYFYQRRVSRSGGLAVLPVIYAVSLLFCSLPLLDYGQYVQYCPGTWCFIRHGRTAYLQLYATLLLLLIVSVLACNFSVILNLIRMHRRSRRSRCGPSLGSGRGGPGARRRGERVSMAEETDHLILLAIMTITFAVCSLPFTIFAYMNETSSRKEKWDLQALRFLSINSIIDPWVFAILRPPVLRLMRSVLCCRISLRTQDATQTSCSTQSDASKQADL
Assay: Prostanoid EP2 FLIPR assay (calcium flux, PGE2 addition)
Settings: CHO cells transfected with human EP2, Fluo-4 calcium dye
Experimental: HEK293 cells transfected with human Prostanoid EP4 Receptor (EP4) or CHO cells transfected with human Prostanoid EP2 Receptor (EP2) are maintained in DMEM supplemented with L-Glutamine, 10% FBS and 300 μg/ml G418. […] After the pre-treatment incubation, fluorescence intensity is measured on a FlexStation II fluorometric imaging plate reader (Molecular Devices). […] Data are analyzed and IC50 is calculated using GraphPad Prism 5 and the model “log(inhibitor) vs. response—Variable slope”. […]
Entries annotated with measured IC50

Illustrative cases are given below, each with its answer.
C[C@H](NC(=O)c1cnn2cccc(Cc3cc4ccccc4cn3)c12)c1ccc(C(=O)O)cc1 [Compound 12] = > 1 µM
C[C@H](NC(=O)c1cnn2cccc(Cc3cccc(C(F)(F)F)c3)c12)c1ccc(C(=O)O)cc1 [Compound 3] = > 1 µM

stdin: // IC50 lookup, key: O=C(NC1CC2(C1)CC(C(=O)O)C2)c1cnn2cccc(Cc3cccc(C(F)(F)F)c3)c12 (centres unmarked) [Compound 4]
stdout: > 1 µM

stdin: Which IC50 value belongs to O=C(NC1CC2(C1)CC(C(=O)O)C2)c1cnn2cccc(Cc3ccc(C(F)(F)F)cc3)c12 (centres unmarked) [Compound 2] ?
stdout: > 1 µM

stdin: Query (molecule): O=C(N[C@H]1CC2(C1)C[C@H](C(=O)O)C2)c1cnn2cccc(Cc3ccc(C(F)(F)F)cc3)c12 (single isomer, unassigned) [Compound 14B] ; field requested: IC50
stdout: > 1 µM
